So I've got a bunch of compounds here, and I need their TGI values.
System: OVCAR-8 ovarian
Assay: NCI tumour cell line growth inhibition, 48 h

Entry COc1ccc(C2=NN(C(N)=S)C(c3ccccc3)C2)cc1 (stereo unspecified) ; TGI = > 100 µM

Entry `N#Cc1cc(-c2nc3c(F)cccc3s2)ccc1N` ; TGI = > 100 µM

Entry `COc1ccc(CC(=O)NCCc2ccc(OC)c(OC)c2)cc1Br` ; TGI = > 100 µM

Entry `COc1ccc(/C=C(\C#N)n2nnc3ccccc32)cc1` ; TGI = > 100 µM

Entry `CSc1sc(=S)sc1C(=O)N(C)c1ccccc1` ; TGI = > 100 µM

Entry NC1=C(c2nc(-c3ccccc3)cs2)C(c2ccc(Br)cc2)c2c(c3ccccc3oc2=O)O1 (stereo unspecified) ; TGI = > 150 mg/L
